Consider the following binders and their measured pKd readings.
# test target: S100A9
# assay explanation: FP; direct
pKd: −log10 of the molar value.
experimental endpoint: pKd

INSERT INTO assay_data (binder, meas_value) VALUES
  ('VLQTWLQDLLRRGLVRAAQ [TRPM4 (129-147) peptide]', 4.68),
  ('RRLLFYKYVYKR [NCX1 (254-265) peptide]', 4.70);
